Data provenance is ChEMBL document CHEMBL2321659.

Molecular target: Retinoic acid receptor RXR-alpha (Homo sapiens)
Sequence (P19793 whole entry): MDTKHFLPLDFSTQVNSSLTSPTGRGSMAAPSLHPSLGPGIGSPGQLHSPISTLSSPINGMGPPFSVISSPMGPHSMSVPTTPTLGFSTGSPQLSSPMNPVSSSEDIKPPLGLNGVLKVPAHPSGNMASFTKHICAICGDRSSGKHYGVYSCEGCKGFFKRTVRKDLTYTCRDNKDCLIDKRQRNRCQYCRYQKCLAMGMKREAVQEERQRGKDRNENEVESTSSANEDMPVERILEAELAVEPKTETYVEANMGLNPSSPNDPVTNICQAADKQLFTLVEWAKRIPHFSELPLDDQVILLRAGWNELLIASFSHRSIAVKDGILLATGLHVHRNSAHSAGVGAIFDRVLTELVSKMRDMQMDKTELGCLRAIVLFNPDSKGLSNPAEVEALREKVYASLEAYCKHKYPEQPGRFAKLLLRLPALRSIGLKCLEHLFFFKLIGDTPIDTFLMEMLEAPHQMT
Experiment: Activation of human RXRalpha activity expressed in COS1 cells after 12 hrs by RXRE-luciferase reporter gene assay
pEC50: −log10 of the molar value.
Test Readout: pEC50

Some compounds with recorded pEC50:
NCCCCCn1c2c(c3ccccc3c1=O)C(=O)c1ccccc1-2 ... 4.91
CNCCCn1c2c(c3ccc(Br)cc3c1=O)C(=O)c1ccccc1-2 ... 4.97
NCCCCCCn1c2c(c3ccccc3c1=O)C(=O)c1ccccc1-2 ... 4.79
CN(C)CCCn1c2c(c3ccc(Br)cc3c1=O)C(=O)c1ccccc1-2 ... 4.73

(a) COC(=O)c1ccc2c3c(n(CCCN(C)C)c(=O)c2c1)-c1ccccc1C3=O
(b) CNCCCn1c2c(c3ccccc3c1=O)C(=O)c1ccccc1-2
Hi there! Just curious which has the higher pEC50 between a and b . Respond with the label that goes with your answer.
b

====

Target: Retinoic acid receptor RXR-alpha (Homo sapiens)
Assay: Binding affinity to RXRalpha (unknown origin) at 10 uM after 2 hrs by ultrafiltration LC-MS/MS analysis relative to control
Test Readout: fold change (FC)

CN(C)CCCn1c2c(c3ccc(N)cc3c1=O)C(=O)c1ccccc1-2 ... 2.5

(a) CN(C)CCCn1c2c(c3ccccc3c1=O)C(=O)c1ccccc1-2
(b) CNCCCn1c2c(c3ccccc3c1=O)C(=O)c1ccccc1-2
(c) COC(=O)CC(=O)Nc1ccc2c3c(n(CCCN)c(=O)c2c1)-c1ccccc1C3=O
Ascending sort, fold change (FC). Labels, requested order.
c, a, b
(c: 1.7, a: 2.6, b: 7.6)

====

Experiment: Cytotoxicity against African green monkey COS1 cells assessed as cell survival
Assay type: cell-based
Design: concentration or dose not given beside the values
Settings: chlorocebus aethiops, COS-1 cells; read-out: Activity
Test Readout: viability (%)
# unit: % | format: bare number

COC(=O)CC(=O)Nc1ccc2c3c(n(CCCN)c(=O)c2c1)-c1ccccc1C3=O ... 85
NCCCCCn1c2c(c3ccccc3c1=O)C(=O)c1ccccc1-2 ... 40.7
CNCCCn1c2c(c3ccc(Br)cc3c1=O)C(=O)c1ccccc1-2 ... 31.3
NCCCCn1c2c(c3ccccc3c1=O)C(=O)c1ccccc1-2 ... 53.8
COc1cc2c3c(n(CCCN)c(=O)c2cc1OC)-c1ccc(F)cc1C3=O ... 23.8
CN(C)CCCn1c2c(c3ccccc3c1=O)C(=O)c1ccccc1-2 ... 52.5
NCCCn1c2c(c3ccc(N)cc3c1=O)C(=O)c1ccccc1-2 ... 52.1
NCCCn1c2c(c3ccc(N)cc3c1=O)Cc1ccccc1-2 ... 49.3

Value lookup for viability; key = "O=C1c2ccccc2-c2c1c1ccc(Br)cc1c(=O)n2CCCN1CCOCC1"
100

Value lookup for viability; key = "CN(C)CCCn1c2c(c3ccc(Br)cc3c1=O)C(=O)c1ccccc1-2"
48.5

Value lookup for viability; key = "O=C(O)CCn1c2c(c3ccc(Br)cc3c1=O)C(=O)c1ccccc1-2"
98

====

Target: Retinoic acid receptor RXR-alpha (Homo sapiens)
Experiment: Activation of human RXRalpha activity expressed in COS1 cells after 12 hrs by RXRE-luciferase reporter gene assay
Test Readout: EC50 (µM)

NCCn1c2c(c3ccccc3c1=O)C(=O)c1ccccc1-2 ... 15.9
NCCCn1c2c(c3ccc(NCC(=O)O)cc3c1=O)C(=O)c1ccccc1-2 ... 8.4
CN(C)CCCn1c2c(c3ccc(N)cc3c1=O)C(=O)c1ccccc1-2 ... 7
CN(C)CCCn1c2c(c3ccccc3c1=O)C(=O)c1ccccc1-2 ... 9.6
NCCCCn1c2c(c3ccccc3c1=O)C(=O)c1ccccc1-2 ... 11.3

(P) COc1ccc2c(c1)C(=O)c1c-2n(CCCN)c(=O)c2ccccc12
(Q) NCCCn1c2c(c3ccccc3c1=O)C(=O)c1ccccc1-2
Just tell me: smaller EC50 value, P or Q ? Respond with the label that goes with your answer.
P

====

Test: Cytotoxicity against African green monkey COS1 cells assessed as cell survival
Format: cell-based
Set-up: concentration or dose not given beside the values
Settings: chlorocebus aethiops, COS-1 cells; read-out: Activity
Listed next: entries and their corresponding viability.
# unit: % | format: bare number

Cc1cc2c(cc1C1(c3ccc(C(=O)O)cn3)CC1)C(C)(C)CCC2(C)C ... 84.3
COC(=O)c1ccc2c3c(n(CCCN(C)C)c(=O)c2c1)-c1ccccc1C3=O ... 21.7
CN(C)CCCn1c2c(c3ccc([N+](=O)[O-])cc3c1=O)C(=O)c1ccccc1-2 ... 83.7
NCCn1c2c(c3ccccc3c1=O)C(=O)c1ccccc1-2 ... 30.7
COC(=O)c1ccc2c3c(n(CCCN)c(=O)c2c1)-c1ccccc1C3=O ... 55
NCCCn1c2c(c3ccccc3c1=O)C(=O)c1ccccc1-2 ... 50.8

Value lookup for viability; key = "CNCCCn1c2c(c3ccccc3c1=O)C(=O)c1ccccc1-2"
51.2

Value lookup for viability; key = "NCCCCCCn1c2c(c3ccccc3c1=O)C(=O)c1ccccc1-2"
24.9

Value lookup for viability; key = "COc1ccc2c(c1)C(=O)c1c-2n(CCCN)c(=O)c2ccccc12"
46.8

Value lookup for viability; key = "O=C1c2ccccc2-c2c1c1ccccc1c(=O)n2CCCn1ccnc1"
100

Value lookup for viability; key = "C[N+](C)(C)CCCn1c2c(c3ccccc3c1=O)C(=O)c1ccccc1-2"
99.4

Value lookup for viability; key = "NCCCn1c2c(c3ccc(C(=O)O)cc3c1=O)C(=O)c1ccccc1-2"
83.7

Value lookup for viability; key = "CN(C)CCCn1c2c(c3ccc(N)cc3c1=O)C(=O)c1ccccc1-2"
53.7

====

Target: Retinoic acid receptor RXR-alpha (Homo sapiens)
Assay: Activation of human RXRalpha activity expressed in COS1 cells assessed as induction ratio at 50 uM after 12 hrs by RXRE-luciferase reporter gene assay relative to untreated control
Format: cell-based
Details: COS-1
Test Readout: Ratio

CC(=O)NCCCn1c2c(c3ccc([N+](=O)[O-])cc3c1=O)C(=O)c1ccccc1-2 ... < 1
COC(CCn1c2c(c3ccc([N+](=O)[O-])cc3c1=O)C(=O)c1ccccc1-2)OC ... < 1

Value lookup for Ratio; key = CNc1ccc2c3c(n(CCCNC(=O)OC(C)(C)C)c(=O)c2c1)-c1ccccc1C3O (stereo not drawn)
< 1

Value lookup for Ratio; key = "Cn1c2c(c3ccc(/C=C/C(=O)O)cc3c1=O)C(=O)c1ccccc1-2"
< 1

====

Listed next: entries and their corresponding viability.
Test: Cytotoxicity against African green monkey COS1 cells assessed as cell survival
Assay type: cell-based
Set-up: concentration or dose not given beside the values
Conditions: chlorocebus aethiops, COS-1 cells; read-out: Activity
# unit: % | format: bare number

Some molecules with recorded viability:
CCOC(=O)CNc1ccc2c3c(n(CCCN)c(=O)c2c1)-c1ccccc1C3=O ... 22.2
COC(=O)/C=C/c1ccc2c3c(n(CCCN)c(=O)c2c1)-c1ccccc1C3=O ... 90.4
CNCCCn1c2c(c3ccc([N+](=O)[O-])cc3c1=O)C(=O)c1ccccc1-2 ... 33.1
NCCCn1c2c(c3ccc(NCC(=O)O)cc3c1=O)C(=O)c1ccccc1-2 ... 61.2
CN(C)CCCn1c2c(c3ccc(C#N)cc3c1=O)C(=O)c1ccccc1-2 ... 54.8
NCCCn1c2c(c3ccc([N+](=O)[O-])cc3c1=O)C(=O)c1ccccc1-2 ... 32.1
CNCCCn1c2c(c3ccc(N)cc3c1=O)C(=O)c1ccccc1-2 ... 53
CNc1ccc2c3c(n(CCCN)c(=O)c2c1)-c1ccccc1C3=O ... 45.9
CN(C)c1ccc2c3c(n(CCCN)c(=O)c2c1)-c1ccccc1C3=O ... 30.6

Value lookup for viability; key = "CC(=O)Nc1ccc2c3c(n(CCCN)c(=O)c2c1)-c1ccccc1C3=O"
69.2

====

Target: Retinoic acid receptor RXR-alpha (Homo sapiens) (UniProt P19793)
Assay: Activation of human RXRalpha activity expressed in COS1 cells assessed as induction ratio at 50 uM after 12 hrs by RXRE-luciferase reporter gene assay relative to untreated control
Type: cell-based
Details: COS-1
Test Readout: Ratio

Some compounds with recorded Ratio:
COC(=O)CCn1c2c(c3ccc(Br)cc3c1=O)C(=O)c1ccccc1-2 ... < 1
COC(=O)c1ccc2c3c(n(CCCN)c(=O)c2c1)-c1ccccc1C3=O ... < 1
NC(=O)CCn1c2c(c3ccc([N+](=O)[O-])cc3c1=O)C(=O)c1ccccc1-2 ... < 1
Cn1c2c(c3ccc(NC(=O)CC(=O)O)cc3c1=O)C(=O)c1ccccc1-2 ... < 1
Cn1c2c(c3ccc(C(=O)O)cc3c1=O)C(=O)c1ccccc1-2 ... < 1
COC(=O)CCCCC(=O)Nc1ccc2c3c(n(C)c(=O)c2c1)-c1ccccc1C3=O ... < 1
Cn1c2c(c3ccc(I)cc3c1=O)C(=O)c1ccccc1-2 ... < 1
COc1ccc2c(c1)C(=O)c1c-2n(CCCN)c(=O)c2ccccc12 ... > 1
COC(=O)c1ccc2c3c(n(CCCn4ccnc4)c(=O)c2c1)-c1ccccc1C3=O ... < 1
O=C1c2ccccc2-c2c1c1ccc(Br)cc1c(=O)n2CCCn1ccnc1 ... < 1

Value lookup for Ratio; key = "COC(=O)C#Cc1ccc2c3c(n(C)c(=O)c2c1)-c1ccccc1C3=O"
< 1

Value lookup for Ratio; key = "CC(C)(C)OC(=O)NCCCn1c2c(c3ccc(N)cc3c1=O)C(=O)c1ccccc1-2"
< 1

Value lookup for Ratio; key = "CCOC(=O)CNc1ccc2c3c(n(CCCN)c(=O)c2c1)-c1ccccc1C3=O"
< 1

Value lookup for Ratio; key = "CN(C)c1ccc2c3c(n(CCCN)c(=O)c2c1)-c1ccccc1C3=O"
< 1

Value lookup for Ratio; key = "CN(C)CCCn1c2c(c3ccc(Br)cc3c1=O)C(=O)c1ccccc1-2"
> 1
